tested on: biotinyl-Val-oxazolone; assay: self-aminoacylation, catalytic enhancement (BVO) (fold over background); higher = more active; k-Seq, kA / k0A0; sequences stand for … in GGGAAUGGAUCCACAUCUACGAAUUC…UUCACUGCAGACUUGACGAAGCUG
This sample holds only a part of the variants without activity.
param class (str): category from self-aminoacylation; see ranges zone 1 = under 0.9, zone 2 = from 0.9 up to 2, zone 3 = 2 and over

CUACUUCAAACAAUCGUUCAG [Fam1A.1 aminoacylation ribozyme variant] ... zone 1
CCACACUUCAAGCAAUCUGUG [Fam1B.1 aminoacylation ribozyme variant] ... zone 1
CUACUUCAAAAAAUCGAUCUG [Fam1A.1 aminoacylation ribozyme variant] ... zone 1
CCACGCUUCAAGCAAUCAGUC [Fam1B.1 aminoacylation ribozyme variant] ... zone 1
CUACCUCAAAAAAUCGGUCUG [Fam1A.1 aminoacylation ribozyme variant] ... zone 2
AUUACCCUGGUGAUCGAUUGA [Fam2.1 aminoacylation ribozyme variant] ... zone 1

Which category fits this record: CUACUUCUAACAAUCGGUCUU [Fam1A.1 aminoacylation ribozyme variant]
zone 1

Repeat with AUUACCCUGUUCAUUGAGUGA [Fam2.1 aminoacylation ribozyme variant]
zone 3

Repeat with CUACUUCAAAAAGUCGGUCUG [Fam1A.1 aminoacylation ribozyme variant]
zone 1
